# TESTED_ON: T1, 4H3939-AA
# T1 chain: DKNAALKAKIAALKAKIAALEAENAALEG
# MEASUREMENT_DESCRIPTION: two-hybrid library CCmax;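 note: natural log of median RNA to DNA barcode read ratio; higher means stronger binding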
# ASSAY_SETUP: mean of both orientations

BINDER	interaction score
DENAALEAKNAALEAKIAALKAKIAALKG [4H1454-AA]	-1.25
DKIAALKAENAALEAKNAALEAKIAALKG [4H2742-AA]	-1.63
DENAALKAKIAALEAKNAALKAKIAALKG [4H1854-AA]	-1.28
DENAALEAKIAALKAEIAALEAENAALKG [4H1348-AA]	0.262
DENAALEAKIAALKAKIAALKAKNAALEG [4H1391-AA]	-1.09
DENAALEAEIAALEAKIAALEAKNAALKG [4H1064-AA]	2.3
DKNAALKAEIAALKAENAALEAEIAALKG [4H3666-AA]	-1.61

The measured values listed here are drawn from paper PMC10397247.
